# METHOD_DESCRIPTION: protein stability index of a GFP-peptide fusion (GPS, HEK-293T) (PSI 1-6); higher = more stable;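 also: 24-mer peptide tiles fused after GFP, lentivirally expressed, FACS-sorted into six equal bins by GFP/DsRed ratio, decoded by Illumina sequencing, PSI is the read-weighted mean bin number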
# CONDITION_SET: treatment: DMSO; c terminus: a fixed tail appended
Hi, to clarify the labels: met covers protein stability index from 4 upward, not met covers anything below 4.

Please review the entries below; each comes with its answer.
SSSSSSSSSSSSSSSSGPGHGEPD [TMEM40] : met
EETHLEETTESQQNGEEGTSTPED [SMARCE1] : met
WPPSFLSEFRALQFSLMLCAFVGA [SPNS1] : not met
GLEALAGGDLMPAPADPTAREGLA [FCHO1] : met
SMGFSARYNFTPDPDFKDLGALKP [NETO1] : not met

Q: Check if protein stability index >= 4 (inclusive). Item: SFACQCPEGHVLRSDGKTCAKLDS [MATN2]
A: met

====

Catalogue of protein stability index readings, one per entry.
# METHOD_DESCRIPTION: protein stability index of a GFP-peptide fusion (GPS, HEK-293T) (PSI 1-6); higher = more stable
# CONDITION_SET: treatment: DMSO; c terminus: a fixed tail appended

# count of solved cases: 4
RDLEKQKEEVRAALEQREQDAVDQ [TRIM29] : 5.59
LDMNFSLENREEPWVKELQDSKEM [ZNF449] : 5.31
IAHDFPGIGHKVDAVFMKDGFFYF [MMP1] : 2.41
SAAIHISETLEQKPHFESSTVKTE [EPB41L3] : 4.92

Q: Report protein stability index for RRDAETWFLSKTEELNKEVASNSE [KRT16] please.
A: 5.09

Q: What do you have for SSPVTTLTQTMHDLAGLGSETPKS [CDC25B] ?
A: 4.97

Q: What do you have for LPLRVSFCPLSLWRWQLYAAQSTK [CLPTM1] ?
A: 2.31

Q: What do you have for PPRSDTIANYELVYKDGEHGEEQR [PTPRD] ?
A: 5.48

Q: What do you have for VTQREHSSEHVTESVADLLALEEP [SLC6A17] ?
A: 5.3

Q: What do you have for AVAHMKYMGKGSMTGLALKHMFER [MATN2] ?
A: 2.07

Q: What do you have for TIVNFPITNVDLREYLSEEVQAVH [USP39] ?
A: 2.92

Q: What do you have for ELDSSSSLCVLVSTVGKLCRLINE [CEP70] ?
A: 3.73

Q: What do you have for TIEELQQKILCAKAENARLVVNID [KRT34] ?
A: 3.37

====

# METHOD_DESCRIPTION: protein stability index of a GFP-peptide fusion (GPS, HEK-293T) (PSI 1-6); higher = more stable
# CONDITION_SET: treatment: DMSO; c terminus: a fixed tail appended
READOUT_KIND: protein stability index
// keep it numeric: no unit symbol after the value

# count of solved cases: 8
VGTMVGADILAGREDNSGSDVLIG [SLC35F2] : 4.79
ETYHQQGQCQVLVQRSPWLMMRMG [TCAP] : 2.18
VHYAKVQLRFQHSQDVSDCYLELF [PLEKHN1] : 2.88
DENSSDGRYVKENCKPLKSYMLQD [CLK3] : 4.57
TRLFHDSAVTSVRILQDEQYLMAS [DCAF4] : 2.76
RGTHAVVGVATARAPLHSVGYTAL [SPSB4] : 2.68
LPPNNSYADFERFSKVLEEAAAAE [DAPK3] : 4.95
QLPISSENDSTPTVSTSEVTSQQE [TAF7L] : 5.53

Q: Report protein stability index for VIFLLLFAPFIVYYFIMACDQYSC [DHCR7] please.
A: 2.41

Q: What do you have for HYCNSSTDRRVLLMFLDICSELNK [SPACA9] ?
A: 2.18

Q: What do you have for ICPSTFACAQLATGAACRLVEAVL [HDAC6] ?
A: 2.17

Q: What do you have for PAGVGVVVEATHMCMVMRGVQKMN [GCH1] ?
A: 2.41

Q: What do you have for SKMDQLAKELTAEKRLEGQEEEED [CHGA] ?
A: 5.54

====

# METHOD_DESCRIPTION: protein stability index of a GFP-peptide fusion (GPS, HEK-293T) (PSI 1-6); higher = more stable
# CONDITION_SET: treatment: MLN4924 1 uM, 8 h; c terminus: a fixed tail appended
Hi, to clarify the labels: t covers protein stability index from 4 upward, f covers anything below 4.

Q: Check if protein stability index >= 4 (inclusive). Item: LLWRKQLFCDVTLTAQGQQFHCHK [KLHL14]
A: f

Q: What do you have for RIRAILSTYRKRTPVMEGYVEVKE [LOXL2] ?
A: f

Q: What do you have for DLSGRRLRDVNHEKAMAEWVKQQA [SDE2] ?
A: t

Q: What do you have for ALTYACAGGYVDVVKVLLESGASI [ANKRD17] ?
A: f

Q: What do you have for GIIRCPDGISIPELREACDYLCIS [BTBD10] ?
A: f

====

Catalogue of protein stability index readings, one per entry.
# METHOD_DESCRIPTION: protein stability index of a GFP-peptide fusion (GPS, HEK-293T) (PSI 1-6); higher = more stable
# CONDITION_SET: treatment: DMSO; c terminus: a fixed tail appended
// keep it numeric: no unit symbol after the value

# count of solved cases: 4
RIRAILSTYRKRTPVMEGYVEVKE [LOXL2] : 2.62
ENHPDVFSDSSMDHFQKFLPTVGG [MYOZ1] : 2.99
LKLLNHPNVIEYYENFLEDKALMI [NEK8] : 2.39
KECGKVFSQSAGLIQHQRIHKGEK [ZSCAN9] : 4.42

Q: Report protein stability index for LLFKDLIKLFACYNDGVINLLEKF [SNAP91] please.
A: 3.04

====

# METHOD_DESCRIPTION: protein stability index of a GFP-peptide fusion (GPS, HEK-293T) (PSI 1-6); higher = more stable
# CONDITION_SET: treatment: MLN4924 1 uM, 8 h; c terminus: a fixed tail appended
Catalogue of protein stability index readings, one per entry.
// keep it numeric: no unit symbol after the value

# count of solved cases: 5
VRLQSQRPSMASELMPSSRLWSLS [SLC25A39] : 2.58
LQRHADEFLLDLGHHERSIMTDLY [FUT8] : 2.69
FFYGETVTDYFFTLVQREEPLRIL [CDS2] : 2.17
RSTNLLAAETASLEEQLQGWGEVM [ARL6IP1] : 4.15
KFLIWDTAGQERFRALAPMYYRGS [RAB22A] : 2.55

Q: Report protein stability index for PLTLQVQRPLVSVTVSDASWVSEL [AUP1] please.
A: 2.67

Q: What do you have for AHIRAERDILVEADGAWVVKMFYS [STK38L] ?
A: 2.27

Q: What do you have for DLQITDQVALLRLTWSELFVLNAA [NR2F2] ?
A: 2.88

Q: What do you have for LTGVLCSYPNPNEDKCPGNYTNPL [TMEM192] ?
A: 3.36

Q: What do you have for ETSPLPGMLAPAAGPAFDSDPEIS [PPFIA4] ?
A: 5.38

Q: What do you have for NTTCQTENRLSVFFSVIFMTVGIL [PTGFR] ?
A: 2.64

Q: What do you have for SRAEPIRTTVFQYPVGWPPVQELP [ZMAT5] ?
A: 2.82

Q: What do you have for NEQVLTTEHEKKQKLETDAMFRLE [YJU2B] ?
A: 5.43

Q: What do you have for ADRAQKMDGESEEEQESVDTGEEE [EHMT1] ?
A: 5.73

Q: What do you have for RPSLVIHLRIHTGEKPYKCTHCSK [ZNF449] ?
A: 2.31

Q: What do you have for LEKVLEENAQKKRFNQVLKNLLHA [VPS39] ?
A: 2.98

Q: What do you have for LYKALGAQDLTEAEGWHFFCFQGE [SAT2] ?
A: 2.29

Q: What do you have for LSPPEQAAQPMQPLPESLASLHPS [PLAGL1] ?
A: 4.93

Q: What do you have for KKQPWWRKLFGQESGPSAEKYSVA [FUNDC2] ?
A: 3.32

Q: What do you have for YDPKTNQWSSDVAPTSTCRTSVGV [KLHL20] ?
A: 3.04

Q: What do you have for TDGGGWLVFQRRMDGQTDFWRDWE [TNXB] ?
A: 2.25

Q: What do you have for PGRSRMISQEEFARQLQLSDPQTV [LPCAT4] ?
A: 4.38

Q: What do you have for YTGEIKISENLDYEETGFYEIEIQ [PCDHGA10] ?
A: 2.87

Q: What do you have for QQELRELRRELELLGRERDRVQVE [PRPH] ?
A: 4.39

Q: What do you have for MMCVAERTYKQRFLFAKLFSHITS [PHTF1] ?
A: 2.24

Q: What do you have for LLFPEEEATNGREGLLRFSSWPFS [AUP1] ?
A: 2.51

Q: What do you have for FFASGFKRAFKIKDFANTIPGHGG [CDS2] ?
A: 2.33

Origin of the recorded values: the supplement of paper PMC10567573
